assay: Equilibrium water solubility was determined with amorphous powders at pH 4; type: ADME
measurement.type: solubility thermodynamic

Endpoint output: solubility thermodynamic of C=C(NC(=O)c1csc(-c2nc3c(cc2O)-c2nc(cs2)C(=O)N[C@@H]([C@@H](C)O)C(=O)N/C(=C(\C)OC)c2nc(cs2)C(=O)N[C@@H]2c4nc(cs4)C(=O)N[C@@H](COC(=O)c4c5c6c(cccc6n4O)COC(=O)[C@@H](O[C@H]4C[C@](C)(O)[C@H](N(C)C)[C@H](C)O4)[C@H]2OC5)c2nc-3cs2)n1)C(N)=O . Value?
340 µg/mL

* * *

assay: Equilibrium water solubility was determined with amorphous powders at pH 3.5; type: ADME
measurement.type: solubility thermodynamic

Endpoint output: solubility thermodynamic of C=C(NC(=O)c1csc(-c2nc3c(cc2O)-c2nc(cs2)C(=O)NC(C(C)O)C(=O)N/C(=C(\C)OC)c2nc(cs2)C(=O)NC2c4nc(cs4)C(=O)NC(COC(=O)c4c5c6c(cccc6n4OC(=O)NCCOCCOCCOCCOCCOCCO)COC(=O)C(OC4CC(C)(O)C(N(C)C)C(C)O4)C2OC5)c2nc-3cs2)n1)C(N)=O (stereo unspecified) . Value?
> 2.1 mg/mL

* * *

experiment: Equilibrium water solubility was determined with amorphous powders at pH 3; assay type: ADME
measurement.type: solubility thermodynamic

Endpoint output: solubility thermodynamic of C=C(NC(=O)c1csc(-c2nc3c(cc2O)-c2nc(cs2)C(=O)NC(C(C)O)C(=O)N/C(=C(\C)OC)c2nc(cs2)C(=O)NC2c4nc(cs4)C(=O)NC(COC(=O)c4c5c6c(cccc6n4OC(=O)NCCCN4CCN(C)CC4)COC(=O)C(OC4CC(C)(O)C(N(C)C)C(C)O4)C2OC5)c2nc-3cs2)n1)C(N)=O (stereo unspecified) . Value?
> 2300 µg/mL

* * *

tested on: Enterococcus faecalis
Some compounds, each annotated with its measured MIC.
Give the number; mg/L is assumed, so skip it.

Identify the measured MIC of C=C(NC(=O)c1csc(-c2nc3c(cc2O)-c2nc(cs2)C(=O)NC(C(C)O)C(=O)N/C(=C(\C)OC)c2nc(cs2)C(=O)NC2c4nc(cs4)C(=O)NC(COC(=O)c4c5c6c(cccc6n4OC(=O)NCCOCCOCCOCCOC)COC(=O)C(OC4CC(C)(O)C(N(C)C)C(C)O4)C2OC5)c2nc-3cs2)n1)C(N)=O (configuration not stated) for Enterococcus faecalis.
0.125

Shifting focus to the compound that follows.
Identify the measured MIC of C=C(NC(=O)c1csc(-c2nc3c(cc2OP([O-])OC)-c2nc(cs2)C(=O)NC(C(C)O)C(=O)N/C(=C(\C)OC)c2nc(cs2)C(=O)NC2c4nc(cs4)C(=O)NC(COC(=O)c4c5c6c(cccc6n4OP([O-])OC)COC(=O)C(OC4CC(C)(O)C(N(C)C)C(C)O4)C2OC5)c2nc-3cs2)n1)C(N)=O.[Na+].[Na+] (configuration not stated) for Enterococcus faecalis.
0.25

* * *

Some molecules, each annotated with its measured MIC.
test system: Enterococcus faecalis
A complete answer gives the number followed by the unit.

Identify the measured MIC of C=C(NC(=O)c1csc(-c2nc3c(cc2O)-c2nc(cs2)C(=O)NC(C(C)O)C(=O)N/C(=C(\C)OC)c2nc(cs2)C(=O)NC2c4nc(cs4)C(=O)NC(COC(=O)c4c5c6c(cccc6n4OP(=O)(O)OCCCl)COC(=O)C(OC4CC(C)(O)C(N(C)C)C(C)O4)C2OC5)c2nc-3cs2)n1)C(N)=O (centres undefined) for Enterococcus faecalis.
0.5 µg/mL

Identify the measured MIC of C=C(NC(=O)c1csc(-c2nc3c(cc2O)-c2nc(cs2)C(=O)NC(C(C)O)C(=O)N/C(=C(\C)OC)c2nc(cs2)C(=O)NC2c4nc(cs4)C(=O)NC(COC(=O)c4c5c6c(cccc6n4OC(=O)NCCOCCOCCOCCOCCOCCO)COC(=O)C(OC4CC(C)(O)C(N(C)C)C(C)O4)C2OC5)c2nc-3cs2)n1)C(N)=O (centres undefined) for Enterococcus faecalis.
0.06 µg/mL

Identify the measured MIC of C=C(NC(=O)c1csc(-c2nc3c(cc2OP(=O)(O)OCCCl)-c2nc(cs2)C(=O)NC(C(C)O)C(=O)N/C(=C(\C)OC)c2nc(cs2)C(=O)NC2c4nc(cs4)C(=O)NC(COC(=O)c4c5c6c(cccc6n4O)COC(=O)C(OC4CC(C)(O)C(N(C)C)C(C)O4)C2OC5)c2nc-3cs2)n1)C(N)=O (centres undefined) for Enterococcus faecalis.
1 µg/mL

More entries:
Identify the measured MIC of C=C(NC(=O)c1csc(-c2nc3c(cc2O)-c2nc(cs2)C(=O)NC(C(C)O)C(=O)N/C(=C(\C)OC)c2nc(cs2)C(=O)NC2c4nc(cs4)C(=O)NC(COC(=O)c4c5c6c(cccc6n4OP([O-])OC)COC(=O)C(OC4CC(C)(O)C(N(C)C)C(C)O4)C2OC5)c2nc-3cs2)n1)C(N)=O.[Na+] (centres undefined) for Enterococcus faecalis.
0.25 µg/mL

* * *

Some molecules, each annotated with its measured MIC.
tested on: Staphylococcus aureus; assay: Minimum concentration required to inhibit visible growth of methicillin-sensitive Staphylococcus aureus A15090; assay type: functional
Give the number; µg/mL is assumed, so skip it.

Illustrative cases are given below, each with its answer.
Endpoint output: MIC of C=C(NC(=O)c1csc(-c2nc3c(cc2OP(=O)(O)OCCCl)-c2nc(cs2)C(=O)NC(C(C)O)C(=O)N/C(=C(\C)OC)c2nc(cs2)C(=O)NC2c4nc(cs4)C(=O)NC(COC(=O)c4c5c6c(cccc6n4O)COC(=O)C(OC4CC(C)(O)C(N(C)C)C(C)O4)C2OC5)c2nc-3cs2)n1)C(N)=O (centres undefined) . Value?
1

Endpoint output: MIC of C=C(NC(=O)c1csc(-c2nc3c(cc2O)-c2nc(cs2)C(=O)NC(C(C)O)C(=O)N/C(=C(\C)OC)c2nc(cs2)C(=O)NC2c4nc(cs4)C(=O)NC(COC(=O)c4c5c6c(cccc6n4OP([O-])OC)COC(=O)C(OC4CC(C)(O)C(N(C)C)C(C)O4)C2OC5)c2nc-3cs2)n1)C(N)=O.[Na+] (centres undefined) . Value?
0.125

Endpoint output: MIC of C=C(NC(=O)c1csc(-c2nc3c(cc2O)-c2nc(cs2)C(=O)NC(C(C)O)C(=O)N/C(=C(\C)OC)c2nc(cs2)C(=O)NC2c4nc(cs4)C(=O)NC(COC(=O)c4c5c6c(cccc6n4OC(=O)NCCOCCOCCOCCOCCOCCO)COC(=O)C(OC4CC(C)(O)C(N(C)C)C(C)O4)C2OC5)c2nc-3cs2)n1)C(N)=O (centres undefined) . Value?
0.06

Shifting focus to the molecule that follows.
Endpoint output: MIC of C=C(NC(=O)c1csc(-c2nc3c(cc2O)-c2nc(cs2)C(=O)NC(C(C)O)C(=O)N/C(=C(\C)OC)c2nc(cs2)C(=O)NC2c4nc(cs4)C(=O)NC(COC(=O)c4c5c6c(cccc6n4OC(=O)NCCOCCOCCOCCOC)COC(=O)C(OC4CC(C)(O)C(N(C)C)C(C)O4)C2OC5)c2nc-3cs2)n1)C(N)=O (centres undefined) . Value?
0.125

* * *

assay: Equilibrium water solubility was determined with amorphous powders at pH 7.1; assay type: ADME
measurement.type: solubility thermodynamic (µg/mL)
Give the number; µg/mL is assumed, so skip it.

Endpoint output: solubility thermodynamic of C=C(NC(=O)c1csc(-c2nc3c(cc2O)-c2nc(cs2)C(=O)NC(C(C)O)C(=O)N/C(=C(\C)OC)c2nc(cs2)C(=O)NC2c4nc(cs4)C(=O)NC(COC(=O)c4c5c6c(cccc6n4OC(=O)N(C)CCO)COC(=O)C(OC4CC(C)(O)C(N(C)C)C(C)O4)C2OC5)c2nc-3cs2)n1)C(N)=O (stereo unspecified) . Value?
3

* * *

system: Staphylococcus aureus; assay: Minimum concentration required to inhibit visible growth of methicillin-sensitive Staphylococcus aureus A15090; assay type: functional
measurement.type: MIC (µg/mL)
Give the number; µg/mL is assumed, so skip it.

Endpoint output: MIC of C=C(NC(=O)c1csc(-c2nc3c(cc2O)-c2nc(cs2)C(=O)NC(C(C)O)C(=O)N/C(=C(\C)OC)c2nc(cs2)C(=O)NC2c4nc(cs4)C(=O)NC(COC(=O)c4c5c6c(cccc6n4OP(=O)(O)OCCCl)COC(=O)C(OC4CC(C)(O)C(N(C)C)C(C)O4)C2OC5)c2nc-3cs2)n1)C(N)=O (configuration not stated) . Value?
0.25

Endpoint output: MIC of C=C(NC(=O)c1csc(-c2nc3c(cc2OP(=O)(O)OCCCl)-c2nc(cs2)C(=O)NC(C(C)O)C(=O)N/C(=C(\C)OC)c2nc(cs2)C(=O)NC2c4nc(cs4)C(=O)NC(COC(=O)c4c5c6c(cccc6n4OP(=O)(O)OCCCl)COC(=O)C(OC4CC(C)(O)C(N(C)C)C(C)O4)C2OC5)c2nc-3cs2)n1)C(N)=O (configuration not stated) . Value?
4

Endpoint output: MIC of C=C(NC(=O)c1csc(-c2nc3c(cc2O)-c2nc(cs2)C(=O)NC(C(C)O)C(=O)N/C(=C(\C)OC)c2nc(cs2)C(=O)NC2c4nc(cs4)C(=O)NC(COC(=O)c4c5c6c(cccc6n4OC(=O)NC)COC(=O)C(OC4CC(C)(O)C(N(C)C)C(C)O4)C2OC5)c2nc-3cs2)n1)C(N)=O (configuration not stated) . Value?
0.125

Endpoint output: MIC of C=C(NC(=O)c1csc(-c2nc3c(cc2O)-c2nc(cs2)C(=O)N[C@@H]([C@@H](C)O)C(=O)N/C(=C(\C)OC)c2nc(cs2)C(=O)N[C@@H]2c4nc(cs4)C(=O)N[C@@H](COC(=O)c4c5c6c(cccc6n4O)COC(=O)[C@@H](O[C@H]4C[C@](C)(O)[C@H](N(C)C)[C@H](C)O4)[C@H]2OC5)c2nc-3cs2)n1)C(N)=O [MJ347-81F4 A] . Value?
0.007

Endpoint output: MIC of C=C(NC(=O)c1csc(-c2nc3c(cc2OP([O-])OC)-c2nc(cs2)C(=O)NC(C(C)O)C(=O)N/C(=C(\C)OC)c2nc(cs2)C(=O)NC2c4nc(cs4)C(=O)NC(COC(=O)c4c5c6c(cccc6n4OP([O-])OC)COC(=O)C(OC4CC(C)(O)C(N(C)C)C(C)O4)C2OC5)c2nc-3cs2)n1)C(N)=O.[Na+].[Na+] (configuration not stated) . Value?
0.25

Endpoint output: MIC of C=C(NC(=O)c1csc(-c2nc3c(cc2O)-c2nc(cs2)C(=O)NC(C(C)O)C(=O)N/C(=C(\C)OC)c2nc(cs2)C(=O)NC2c4nc(cs4)C(=O)NC(COC(=O)c4c5c6c(cccc6n4OC(=O)NCCCN4CCN(C)CC4)COC(=O)C(OC4CC(C)(O)C(N(C)C)C(C)O4)C2OC5)c2nc-3cs2)n1)C(N)=O (configuration not stated) . Value?
0.003

Shifting focus to the molecule that follows.
Endpoint output: MIC of C=C(NC(=O)c1csc(-c2nc3c(cc2OP([O-])OC)-c2nc(cs2)C(=O)NC(C(C)O)C(=O)N/C(=C(\C)OC)c2nc(cs2)C(=O)NC2c4nc(cs4)C(=O)NC(COC(=O)c4c5c6c(cccc6n4O)COC(=O)C(OC4CC(C)(O)C(N(C)C)C(C)O4)C2OC5)c2nc-3cs2)n1)C(N)=O.[Na+] (configuration not stated) . Value?
0.125

// data source = ChEMBL document CHEMBL1137943
